# Measured Target: T1, TP0894-LOTUS (Treponema pallidum subsp. pallidum str. …, UniProt O83864 178-253)
# T1 sequence: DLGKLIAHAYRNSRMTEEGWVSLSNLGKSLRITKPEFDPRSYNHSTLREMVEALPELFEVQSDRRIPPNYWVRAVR
# Method Summary: ELISA

Binder	binding result
GGUGGGCAGGGGAGUGGGGGUGGG (structured_RNA) [Cluster G4-1 RNA]	binds
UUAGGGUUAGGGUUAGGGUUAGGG (structured_RNA) [TERRA G4 RNA]	binds
GGUCCGCAGCCGAGUCCGGGUCCG (ssRNA) [Cluster G4-1 mut RNA]	no binding
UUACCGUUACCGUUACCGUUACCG (ssRNA) [TERRA G4 mut RNA]	no binding
